# Procedure summary: Primary qHTS for delayed death inhibitors of the malarial parasite plastid, 48 hour incubation; also: potency is read from the fitted curve at half-maximal effect
# Conditions: P. falciparum luciferase growth in erythrocytes; series mostly up to 28.7 µM
# From the text: The goal of this screen is to discover new antimalarial compounds that act by inhibiting the development of the apicoplast in the malarial parasite Plasmodium falciparum. […] We have developed a cell-based assay that measures parasite growth based on the expression of an integrated copy of a firefly luciferase reporter. […] Growth inhibition is detected by a decrease in luciferase activity. […]
Screen size: about 310,000 compounds; about 18,000 (5.8%) were called active. About 22% were inconclusive and are not listed. Only a selection was taken, and actives are over-represented in it overall.
Experimental endpoint: Potency

For orientation, consider the following solved cases.
molecule=Cc1sc2nc(SCCO)n(-c3ccccc3)c(=O)c2c1C endpoint_result=inactive
molecule="CCOc1ccc(C(O)Cn2c(=N)n(CCN3CCCCC3)c3ccccc32)cc1 (stereo unspecified)" endpoint_result="4.65 µM (active)"
molecule="Cn1c(=N)n(CC(O)c2ccccc2)c2ccccc21 (stereo unspecified)" endpoint_result=inactive
molecule=CCOC(=O)Cn1c(SC)nc2sc3c(c2c1=O)CC(C)(C)OC3 endpoint_result=inactive

Query block: Look up Potency for this molecule: CCOc1ccc2cc(C#N)c(SCC(=O)OC)nc2c1
Result block: inactive

Query block: Also need Cc1ccc(C)c(-n2c(SCC(=O)O)nc3sc4c(c3c2=O)CCCC4)c1 , thanks.
Result block: inactive

Query block: Also need COc1ccc(Nc2nc(Cl)nc(NCc3ccco3)n2)cc1 , thanks.
Result block: inactive

Query block: Also need COc1ccccc1-n1c(SCC(=O)O)nc2sc3c(c2c1=O)CCC3 , thanks.
Result block: inactive

* * *

# Procedure summary: Primary qHTS for delayed death inhibitors of the malarial parasite plastid, 48 hour incubation
# Conditions: P. falciparum luciferase growth in erythrocytes; series mostly up to 28.7 µM
Out of some 310,000 compounds screened, about 18,000 (5.8%) were called active. Another 22% or so got no clear call; they are omitted. The call rests on the fitted dose curve; in most records, active means well fitted inhibition curve with a large enough effect; inconclusive means small, poorly fitted or top-dose-only effect, or another doubt; inactive means no such curve, though single readings can be large or run the other way. Many of the other results were omitted from the sample, so actives are more common in it than they were.
Mark one answer only. Choices: active, inactive

Query block: Called result for O=C(Nc1nnc(-c2ccc(F)cc2)s1)c1c(F)cccc1Cl
Result block: inactive

Query block: Also need O=C(NCc1ccco1)c1cc(-c2cccnc2)nc2ccc(Cl)cc12 , thanks.
Result block: active

Query block: Also need O=c1c2ccccc2nc(/C=C/c2ccc(F)cc2)n1-c1ccccc1O , thanks.
Result block: active

Query block: Also need CCOC(=O)c1cc(Sc2ccccc2N)cc(C(=O)OCC)n1 , thanks.
Result block: active

Query block: Also need COC(=O)C1(C)NC(c2ccc(F)cc2)C2C(=O)N(c3ccccc3)C(=O)C21 (stereo unspecified) , thanks.
Result block: inactive

Query block: Also need CCC1CCC2(CC1)NC(=O)N(CC(=O)Nc1ccc(OC)cc1)C2=O (stereo unspecified) , thanks.
Result block: inactive

Query block: Also need CCOC(=O)C1=C(CC)Nc2ccccc2N=C1N , thanks.
Result block: inactive

Query block: Also need CCOC(=O)C1CCN(C(=O)CC2C(=O)N(Cc3ccccc3)C(C)c3nc4ccccc4n32)CC1 (stereo unspecified) , thanks.
Result block: active

Query block: Also need CC1c2nc3ccccc3n2C(CC(=O)NCCCN2CCOCC2)C(=O)N1Cc1ccccc1 (stereo unspecified) , thanks.
Result block: inactive

Query block: Also need CCOC(=O)C1CCN(C(=O)Cn2cc(C#N)c3ccccc32)CC1 , thanks.
Result block: inactive

Query block: Also need CCN1C(=O)[C@H]2[C@@H](c3ccc(-c4ccc(OC)cc4)cc3)N[C@@](Cc3ccccc3)(C(=O)OC)[C@H]2C1=O , thanks.
Result block: active

Query block: Also need O=C1CCCN1C(=O)COc1ccc([N+](=O)[O-])cc1 , thanks.
Result block: inactive

Query block: Also need O=C(NC1CCN(S(=O)(=O)c2ccc(F)cc2)CC1)c1ccccc1 , thanks.
Result block: inactive

Query block: Also need COc1ccc(CCNC(=O)Cn2c(=O)n(CC3CCCO3)c(=O)c3ccccc32)cc1OC (stereo unspecified) , thanks.
Result block: inactive

Query block: Also need CCCC1(C(=O)OC)NC(c2ccco2)C2C(=O)N(C)C(=O)C21 (stereo unspecified) , thanks.
Result block: inactive

Query block: Also need O=C(NCc1ccco1)c1ccc([N+](=O)[O-])cc1Cl , thanks.
Result block: inactive

Query block: Also need CCN1C(=O)[C@H]2[C@@H](c3ccc(SC4CCCCC4)c(OC)c3)N[C@@](Cc3ccccc3)(C(=O)OC)[C@H]2C1=O , thanks.
Result block: active

Query block: Also need Cc1c(C(=O)Nc2ccccn2)oc2ccc(Br)cc12 , thanks.
Result block: inactive

Query block: Also need COc1ccc(C(=O)COC(=O)Cn2cnc3c2c(=O)n(C)c(=O)n3C)c(OC)c1 , thanks.
Result block: inactive

Query block: Also need CCOC(=O)c1c(C)[nH]c(C)c1S(=O)(=O)N(C)CC(=O)Nc1ccccc1C , thanks.
Result block: inactive

Query block: Also need Cc1ccccc1NC(=O)C1CCN(C(=O)NC2CCCCC2)CC1 , thanks.
Result block: inactive

* * *

# Procedure summary: Primary qHTS for delayed death inhibitors of the malarial parasite plastid, 48 hour incubation
# Conditions: P. falciparum luciferase growth in erythrocytes; series mostly up to 28.7 µM
The campaign covered roughly 310,000 compounds. About 18,000 (5.8%) were called active. Another 22% or so got no clear call; they are omitted. The call rests on the fitted dose curve; in most records, active means well fitted inhibition curve with a large enough effect; inconclusive means small, poorly fitted or top-dose-only effect, or another doubt; inactive means no such curve, though single readings can be large or run the other way. The full list was thinned out, with actives kept by preference.
Mark one answer only. Choices: active, inactive

Query block: Called result for COc1ccc(OC)c(-c2csc(-c3cccs3)n2)c1
Result block: inactive

Query block: Also need Cc1sc2nc(CSCC(=O)NC3CCCCC3)[nH]c(=O)c2c1C , thanks.
Result block: inactive

Query block: Also need O=C1CCCC2=C1C(c1cccs1)CC(=O)N2c1ccc(F)cc1 (stereo not given) , thanks.
Result block: inactive

Query block: Also need Cc1ccc(NC(=O)Cn2nnc(C(=O)NCc3ccco3)c2N)c(C)c1 , thanks.
Result block: inactive

Query block: Also need Cc1ccccc1N1CCN(S(=O)(=O)c2ccc3ccccc3c2)CC1 , thanks.
Result block: inactive

Query block: Also need CCCCN1C(=O)/C(=C2/Sc3ccc(Cl)cc3N2CC)SC1=S , thanks.
Result block: inactive

Query block: Also need CCOC(=O)C1=C(N)N(c2ccc(C)cc2)C2=C(C(=O)CCC2)C1c1cccs1 (stereo not given) , thanks.
Result block: active

Query block: Also need COc1ccc2c(c1)c(C(=O)N/N=C/c1cccs1)c(C)n2C , thanks.
Result block: inactive

Query block: Also need COc1cc(OC)cc(-c2c(-c3cccs3)c3cc(-c4ccc(OC)cc4F)ccc3n2C)c1 , thanks.
Result block: active

Query block: Also need COCCN1C(=O)C(=O)/C(=C(/O)c2ccc(S(=O)(=O)N3CCOCC3)cc2)C1c1ccc(O)c(OC)c1 (stereo not given) , thanks.
Result block: inactive

* * *

# Procedure summary: Primary qHTS for delayed death inhibitors of the malarial parasite plastid, 48 hour incubation; also: potency is read from the fitted curve at half-maximal effect
# Conditions: P. falciparum luciferase growth in erythrocytes; series mostly up to 28.7 µM
About 18,000 (5.8%) of roughly 310,000 compounds were called active. Inconclusive results (about 22%) are left out. This is one part of a sample in which actives are shown more often than they occur.
Experimental endpoint: Potency

For orientation, consider the following solved cases.
compound=S=c1[nH]cc(-c2ccc(Cl)cc2)n1-c1ccccc1 endpoint_result="1.85 µM (active)"
compound=COc1ccc(C(=O)NCCn2nc(C)cc2C)cc1OC1CCN(C(C)=O)CC1 endpoint_result=inactive
compound=CCOC(=O)c1c(-c2ccccc2)oc2ccc(OCC(=O)NN)cc12 endpoint_result=inactive
compound=COc1cc(-c2cc(C(=O)OCC(=O)Nc3ccc4c(c3)OCO4)c3ccccc3n2)cc(OC)c1OC endpoint_result=inactive
compound=Cc1c(Cl)cccc1NC(=O)CCC(=O)N/N=C/c1ccco1 endpoint_result=inactive

Query block: Look up Potency for this compound: C[C@]12CC[C@@H]3c4ccc(O)cc4C[C@@H](CCCCCCCCCS(=O)CCCC(F)(F)C(F)(F)F)C3[C@@H]1CC[C@@H]2O (stereo not given in full)
Result block: 9.53 µM (active)

Query block: Also need Cc1cc(Cl)nc(NC(=O)Nc2cccc(Cl)c2)n1 , thanks.
Result block: inactive

Query block: Also need CCCn1c(N)c(N(CCOC)C(=O)C2CCCC2)c(=O)[nH]c1=O , thanks.
Result block: inactive

Query block: Also need O=C(OCc1nnc(-c2ccccc2)o1)c1cc(=O)[nH]c2ccccc12 , thanks.
Result block: inactive

Query block: Also need CN(C)c1ccc(CNC(=O)CN2C(=O)COc3ccc(S(=O)(=O)N4CCCC4)cc32)cc1 , thanks.
Result block: inactive

* * *

# Procedure summary: Primary qHTS for delayed death inhibitors of the malarial parasite plastid, 48 hour incubation
# Conditions: P. falciparum luciferase growth in erythrocytes; series mostly up to 28.7 µM
The whole screen tested about 310,000 compounds, of which about 18,000 (5.8%) were called active. About 22% were inconclusive and are not listed. Calls come from the whole dose curve; as a rule, active = well fitted inhibition curve with a large enough effect; inconclusive = small, poorly fitted or top-dose-only effect, or another doubt; inactive = no such curve, though single readings can be large or run the other way. The list comes from a sample in which actives are over-represented; it also holds close analogues and randomly drawn compounds.
Mark one answer only. Choices: yes (1) for active, no (0) for inactive

Query block: Called result for CCC(C(=O)OCCN(CC)CC)c1ccccc1 (stereo unspecified)
Result block: no (0)

Query block: Also need COC(CNC(=O)c1ccc2c(c1)ncn2-c1cc(C)cc(C)c1)OC , thanks.
Result block: no (0)

Query block: Also need CC(C)[C@@H](NC(=O)OC(C)(C)C)C(=O)NCC1CCC(C(=O)N[C@@H](Cc2ccccc2)C(=O)O)CC1 (stereo partly specified) , thanks.
Result block: no (0)

Query block: Also need CC[n+]1c(C)n(-c2ccccc2)c2ccc(NC(C)=O)cc21 , thanks.
Result block: yes (1)

Query block: Also need CCCCOCCCNC(=O)c1ccccc1OCC , thanks.
Result block: yes (1)

Query block: Also need O=C(NCCCN1CCCC1=O)c1ccc(S(=O)(=O)Nc2ccccc2)cc1 , thanks.
Result block: no (0)

Query block: Also need O=C(CN1CCN(C(=O)C2CCCO2)CC1)Nc1c(Cl)cccc1Cl (stereo unspecified) , thanks.
Result block: no (0)

Query block: Also need Cc1cc(NC(=O)c2cnn3cccnc23)n(-c2ccccc2)n1 , thanks.
Result block: no (0)

Query block: Also need CCc1ccccc1N(CC(=O)NCC1CCCO1)C(=O)CCC(=O)Nc1nccs1 (stereo unspecified) , thanks.
Result block: no (0)

Query block: Also need CCN(CC)CCOC(=O)c1ccc(NC(=O)CNC(=O)c2ccccc2)cc1 , thanks.
Result block: no (0)

Query block: Also need CCCC(C(=O)OCCN(CC)CC)(c1ccccc1)c1ccccc1 , thanks.
Result block: yes (1)
